Data provenance: the supplement of paper PMC10065799

System: c-Src
Test: phosphorylation enrichment, bacterial display (enrichment ratio); higher = better substrate or ligand; peptides without Tyr show the background;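 note: 11-residue human phosphosite peptides and single-mutation variants displayed on the E. coli surface, counted by deep sequencing, each peptide's frequency after selection divided by its frequency in the unselected input library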;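 note: frequency after pTyr selection over input frequency; kinase dosed for 20-30% of maximal phosphorylation in three min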
Tick class 1 if phosphorylation enrichment is 0.6 or greater. Tick class 0 if phosphorylation enrichment is less than 0.6.

Reference set, count: 8
Seq text: NKVKFYIPYMN [NCR1_Y84_D87Y]
Assigned label: class 0

Seq text: WDLTDYLMKIL [ACTB_Y188_R183W]
Assigned label: class 0

Seq text: WANPEYTGGFK
Assigned label: class 1

Seq text: EPNSRYTYKLE [USH2A_Y3745]
Assigned label: class 0

Seq text: NSNAAYEQSHF [LRIF1_Y714]
Assigned label: class 0

Seq text: NPIGLYSAEIL [LDB3_Y202_T206I]
Assigned label: class 1

Seq text: ISIFRYAKGQP [MPZ_Y82_H81R]
Assigned label: class 0

Seq text: KGYCGYSYDDI [TMEM230_Y110_R108C]
Assigned label: class 1

Asked: Check if phosphorylation enrichment >= 0.6 (inclusive). Item: AVLQLYIFVAT [CFTR_Y1014_P1013L]
Given back: class 0

Asked: Check if phosphorylation enrichment >= 0.6 (inclusive). Item: FARECYSALPQ [SARS2_Y52_G51C_YF]
Given back: class 1

Asked: Hi, just wondering whether EARRVYGDIIF [ALDH5A1_Y175_H180Y_YF] shows phosphorylation enrichment of 0.6 or higher.
Given back: class 1

Asked: Threshold query (phosphorylation enrichment >= 0.6) on PFVFFYSFLLK [PTEN_Y178_R173P_YF]
Given back: class 0

Asked: Given TYGQVYKGRHV [TNIK_Y40] , state whether its phosphorylation enrichment is at least 0.6.
Given back: class 1

Asked: Identify whether the reported phosphorylation enrichment of the following sequence is 0.6 or greater: AIMSFYAALID [RYR1_Y2426]
Given back: class 0

Asked: hey, is phosphorylation enrichment for this one >= 0.6? TNITEYCRDLI [RECQL_Y492_K487T]
Given back: class 0

Asked: Reported phosphorylation enrichment at or above 0.6? EQKKNYNAMKK [SCN5A_Y1495_Y1494N]
Given back: class 0

Asked: Reported phosphorylation enrichment at or above 0.6? KVGPGYLGSGG [RET_Y826]
Given back: class 0

Asked: Quick check: does RAIELCNDKEK [OTULIN_Y244_Y244C] have phosphorylation enrichment greater than or equal to 0.6?
Given back: class 0

Asked: # check: phosphorylation enrichment of EQDRAYLEGTC [HLA-C_Y183_L180D] is greater than or equal to 0.6
Given back: class 0

Asked: # bool: phosphorylation enrichment of YLRTGYSVPYG [TGM1_Y370] >= 0.6
Given back: class 0

Asked: Check if phosphorylation enrichment >= 0.6 (inclusive). Item: VLSIDYYFPPQ [AR_Y552_P549S]
Given back: class 1

Asked: Could you tell me if the measured phosphorylation enrichment of FLTQHHDAKPQ [ANG_Y38_Y38H] reaches 0.6 or more?
Given back: class 0

----------
Target: FGFR1 (UniProt P11362)
Sequence (P11362 whole entry, looked up): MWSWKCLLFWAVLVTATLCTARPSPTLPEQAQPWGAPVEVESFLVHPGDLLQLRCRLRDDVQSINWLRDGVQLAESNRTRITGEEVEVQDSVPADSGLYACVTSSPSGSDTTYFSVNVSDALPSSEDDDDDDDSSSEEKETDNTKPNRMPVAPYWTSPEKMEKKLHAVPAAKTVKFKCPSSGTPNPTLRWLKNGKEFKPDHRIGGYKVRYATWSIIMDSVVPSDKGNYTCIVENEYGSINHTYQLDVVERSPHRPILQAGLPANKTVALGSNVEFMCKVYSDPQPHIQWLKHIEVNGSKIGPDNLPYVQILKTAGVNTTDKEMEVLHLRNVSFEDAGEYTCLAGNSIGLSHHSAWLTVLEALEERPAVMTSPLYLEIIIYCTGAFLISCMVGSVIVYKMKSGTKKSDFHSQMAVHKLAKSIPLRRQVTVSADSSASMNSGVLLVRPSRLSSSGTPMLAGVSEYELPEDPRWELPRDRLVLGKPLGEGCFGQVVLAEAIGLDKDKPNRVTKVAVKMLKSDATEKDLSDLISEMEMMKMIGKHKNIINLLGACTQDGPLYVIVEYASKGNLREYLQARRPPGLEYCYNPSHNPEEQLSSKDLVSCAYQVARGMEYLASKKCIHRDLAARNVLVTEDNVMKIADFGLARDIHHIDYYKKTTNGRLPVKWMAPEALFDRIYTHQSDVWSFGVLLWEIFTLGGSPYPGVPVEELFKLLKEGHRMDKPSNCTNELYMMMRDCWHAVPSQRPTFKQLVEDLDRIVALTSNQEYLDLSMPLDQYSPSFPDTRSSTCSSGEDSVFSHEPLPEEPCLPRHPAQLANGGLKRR
Experiment: phosphorylation enrichment, bacterial display (enrichment ratio); higher = better substrate or ligand; peptides without Tyr show the background
Rule: phosphorylation enrichment of 0.5 or more gives Condition met; anything lower gives Condition not met.

Reference set, count: 5
Seq text: HVKHNYECLVF [XRCC5_Y416_I412V_YF]
Assigned label: Condition met

Seq text: PLTRSYIREKV [CYP2C8_Y243_A238P]
Assigned label: Condition not met

Seq text: AALSAYAPQRP [PTPRN2_Y249_A251P]
Assigned label: Condition met

Seq text: VLICAYLLHRG [PTEN_Y138_M134L]
Assigned label: Condition not met

Seq text: TEQDPYNNIDR [MMUT_Y364_V368D]
Assigned label: Condition met

Then there is this sequence:
Asked: Kindly determine if phosphorylation enrichment recorded for HAVYVCDICHV [TWNK_Y508_Y508C] is above or exactly 0.5.
Given back: Condition met

----------
Target: FGFR3 (UniProt P22607)
Sequence (P22607 whole entry, looked up): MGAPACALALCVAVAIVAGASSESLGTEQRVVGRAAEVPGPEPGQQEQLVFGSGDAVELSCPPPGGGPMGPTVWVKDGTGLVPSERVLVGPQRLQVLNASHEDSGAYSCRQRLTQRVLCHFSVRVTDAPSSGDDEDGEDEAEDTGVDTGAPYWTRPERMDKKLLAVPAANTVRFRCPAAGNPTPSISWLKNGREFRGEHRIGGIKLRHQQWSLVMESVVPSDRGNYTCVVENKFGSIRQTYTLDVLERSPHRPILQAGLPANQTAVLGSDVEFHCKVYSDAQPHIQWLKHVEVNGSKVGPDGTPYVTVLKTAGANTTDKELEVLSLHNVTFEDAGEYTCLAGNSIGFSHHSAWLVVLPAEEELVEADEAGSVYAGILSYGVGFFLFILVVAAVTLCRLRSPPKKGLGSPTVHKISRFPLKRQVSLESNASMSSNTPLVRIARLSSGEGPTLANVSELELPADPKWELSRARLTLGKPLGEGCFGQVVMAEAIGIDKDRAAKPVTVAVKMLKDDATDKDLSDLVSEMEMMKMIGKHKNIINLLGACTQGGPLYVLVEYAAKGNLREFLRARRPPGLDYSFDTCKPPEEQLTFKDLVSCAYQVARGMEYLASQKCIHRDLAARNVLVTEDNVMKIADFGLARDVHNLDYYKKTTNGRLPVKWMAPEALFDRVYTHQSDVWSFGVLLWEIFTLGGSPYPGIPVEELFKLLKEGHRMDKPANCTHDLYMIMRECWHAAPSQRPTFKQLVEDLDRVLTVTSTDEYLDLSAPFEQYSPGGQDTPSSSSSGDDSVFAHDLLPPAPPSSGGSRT
Assay: phosphorylation enrichment, bacterial display (enrichment ratio); higher = better substrate or ligand; peptides without Tyr show the background
Quantity kind: phosphorylation enrichment
Number only, please.

Asked: What phosphorylation enrichment value was documented for this sequence, ATHSRYRLNDY [CLDN14_Y233_G232R] ?
Given back: 0.468

Asked: Given EREFKYDAHNF [OAT_Y50_G51D_YF] , state its recorded phosphorylation enrichment.
Given back: 0.693

Asked: Data request, read-out phosphorylation enrichment, for RRIHSHRGHLW [VHL_Y112_Y112H]
Given back: 0.701

Asked: Give its phosphorylation enrichment value. Item: KASVDYIRKLQ [MITF_Y360]
Given back: 0.482

Asked: Which measured phosphorylation enrichment value corresponds to SYCYRYCCAAR [SUMF1_Y344_R345C] ?
Given back: 0.769

Asked: # query: phosphorylation enrichment of entry QQLQGYIPSNY [FRK_Y99]
Given back: 0.49

----------
Test system: Fer (mouse)
Test: phosphorylation enrichment, bacterial display (enrichment ratio); higher = better substrate or ligand; peptides without Tyr show the background
Please use the following phosphorylation enrichment ranges when assigning a class: lower segment = under 0.5, middle segment = from 0.5 up to 0.7, upper segment = 0.7 and over

Completed entries (count: 5):
Seq text: RNLDTYQKRLR [PLA2G2D_Y126]
Target or system: Fer (mouse)
Assigned label: lower segment

Seq text: DEGVNHFMSKG [FBXO8_Y156_Y156H]
Target or system: Fer (mouse)
Assigned label: lower segment

Seq text: IVRSLYEDPED [VHL_Y185_L188P]
Target or system: Fer (mouse)
Assigned label: upper segment

Seq text: ANYTEYVATSW [CDKL5_Y171_R175S]
Target or system: Fer (mouse)
Assigned label: middle segment

Seq text: ANYTEYVATRW [CDKL5_Y171]
Target or system: Fer (mouse)
Assigned label: middle segment

Asked: Field: class (phosphorylation enrichment) — entry: LLIMEYAKYGS [RET_Y806_V804M]
Given back: upper segment

Asked: Band assignment needed for ATARPYRPFII [LRP5_Y1528_YF] please.
Given back: lower segment

Asked: Classify this sequence: FEPWVYSLSFE [PRKDC_Y647_F649L_YF]
Given back: upper segment

Asked: Place this sequence in its band: RNIQQCNSFVS [PRKAR1A_Y373_Y373C]
Given back: upper segment

Asked: Textbook exercise: identify the category of the sequence given here, FVSIVYNDSGE [TSC2_Y1650] , according to its measured value.
Given back: middle segment

Asked: Kindly state the category for this sequence: GGSSPYSRRLP [CDK13_Y351]
Given back: lower segment

Asked: Dear colleague, I would appreciate it if you could identify the bin for TLPAFYMENFS [GLB1_Y552_G554E] and reply at your convenience.
Given back: middle segment

Asked: Form field 'band' for LSQDVYEEDSF [RET_Y900_R897Q_YF]
Given back: upper segment

Asked: Into which category would you place MVSLFYGTAIF [OR10C1_Y251_L255I] ?
Given back: upper segment

Asked: Please let me know in which category the item SIKDKYVTVLF [KCNH2_Y611_A614V_YF] belongs.
Given back: lower segment

Asked: Please indicate the class for PMQLPYDSTWE [PDGFRB_Y589] based on its phosphorylation enrichment.
Given back: middle segment

Asked: Which class does DPLASYLDKVR [KRT10_Y160_R156P] fall in?
Given back: lower segment

Asked: Would you mind sorting `PGVNYYFRVSA` into the appropriate category?
Given back: lower segment

Asked: Kindly state the category for this sequence: VMAALYGRLYE [BTD_Y536_T532M]
Given back: upper segment

Asked: Class for RKMSSYAFFVQ [HMGB1_Y16_G11R] ?
Given back: upper segment

Asked: Exam item: assign CTTIHYNFMCF [TP53_Y234_N239Y_YF] to the correct category.
Given back: middle segment

Asked: Which of the defined bands does the recorded phosphorylation enrichment of KLSFSYGQALQ [ALDOB_Y302_R304Q] sit within?
Given back: middle segment

----------
Overview of recorded phosphorylation enrichment for various sequences
Molecular target: EPHB1 (UniProt P54762)
Sequence (P54762 whole entry, looked up): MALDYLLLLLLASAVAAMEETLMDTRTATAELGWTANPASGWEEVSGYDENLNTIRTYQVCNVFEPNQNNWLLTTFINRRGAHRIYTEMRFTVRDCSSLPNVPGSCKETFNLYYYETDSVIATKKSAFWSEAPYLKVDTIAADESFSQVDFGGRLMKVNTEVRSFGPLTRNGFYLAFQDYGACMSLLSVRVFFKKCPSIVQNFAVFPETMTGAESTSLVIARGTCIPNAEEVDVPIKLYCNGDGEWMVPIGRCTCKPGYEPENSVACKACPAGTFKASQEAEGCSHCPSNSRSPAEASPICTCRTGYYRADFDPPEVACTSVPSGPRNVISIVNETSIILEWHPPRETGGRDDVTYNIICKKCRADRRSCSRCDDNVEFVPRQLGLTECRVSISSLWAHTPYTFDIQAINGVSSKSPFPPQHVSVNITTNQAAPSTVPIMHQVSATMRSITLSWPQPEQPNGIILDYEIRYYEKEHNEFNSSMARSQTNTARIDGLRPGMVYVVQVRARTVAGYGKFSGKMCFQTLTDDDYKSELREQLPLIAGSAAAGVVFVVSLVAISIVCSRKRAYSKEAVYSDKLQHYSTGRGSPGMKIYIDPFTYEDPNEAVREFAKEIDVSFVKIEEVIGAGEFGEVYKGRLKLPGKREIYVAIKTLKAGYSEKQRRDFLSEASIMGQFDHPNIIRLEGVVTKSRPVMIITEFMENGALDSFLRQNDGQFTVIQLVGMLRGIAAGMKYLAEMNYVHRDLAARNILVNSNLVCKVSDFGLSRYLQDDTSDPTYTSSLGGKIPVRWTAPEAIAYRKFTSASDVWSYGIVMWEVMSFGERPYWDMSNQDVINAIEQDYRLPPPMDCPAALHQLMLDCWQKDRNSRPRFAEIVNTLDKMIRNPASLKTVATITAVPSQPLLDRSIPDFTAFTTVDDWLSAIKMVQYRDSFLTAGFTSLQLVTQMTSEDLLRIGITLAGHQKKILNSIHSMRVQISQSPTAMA
Test: phosphorylation enrichment, bacterial display (enrichment ratio); higher = better substrate or ligand; peptides without Tyr show the background

Seq text: LYEDRYLLGTS [ASS1_Y87]
Quantity kind: phosphorylation enrichment
Readout value: 3.01
--
Seq text: TVLGEYALPKG [CYP24A1_Y407]
Quantity kind: phosphorylation enrichment
Readout value: 0.58

# input for lookup
Asked: Report phosphorylation enrichment for SRGSSYNSIPK [FLNC_Y2625_S2626N] please.
Given back: 0.417

----------
System: Fer (mouse)
Assay: phosphorylation enrichment, bacterial display (enrichment ratio); higher = better substrate or ligand; peptides without Tyr show the background
Recorded measurements of phosphorylation enrichment, one per entry

Seq text: EARRVYGDIIF [ALDH5A1_Y175_H180Y_YF]
Quantity kind: phosphorylation enrichment
Readout value: 0.493
//
Seq text: SEDSEYFRAFE [CASQ2_Y178_K180R_YF]
Quantity kind: phosphorylation enrichment
Readout value: 0.511
//
Seq text: EASGIYVKSII [PATJ_Y396]
Quantity kind: phosphorylation enrichment
Readout value: 0.492

Continue with the next sequence.
Asked: Record STTIHYNFMCN [TP53_Y234_C229S_YF] : what is its phosphorylation enrichment with Fer (mouse)?
Given back: 0.494
